// data source = patent US20100279930A1

molecular target: human Y4 receptor (human, UniProt P50391 1-375); test: 125I-PP displacement
Sequence (P50391 whole entry): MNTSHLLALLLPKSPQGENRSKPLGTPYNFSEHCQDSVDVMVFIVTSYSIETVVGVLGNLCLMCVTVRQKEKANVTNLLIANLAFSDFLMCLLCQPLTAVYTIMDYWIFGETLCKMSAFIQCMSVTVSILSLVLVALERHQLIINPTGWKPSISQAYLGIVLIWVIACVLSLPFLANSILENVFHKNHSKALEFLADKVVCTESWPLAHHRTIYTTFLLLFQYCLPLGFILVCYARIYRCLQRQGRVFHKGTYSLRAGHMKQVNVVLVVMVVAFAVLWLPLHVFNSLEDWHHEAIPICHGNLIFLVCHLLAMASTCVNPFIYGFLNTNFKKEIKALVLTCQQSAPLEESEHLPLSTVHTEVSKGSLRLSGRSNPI
Classify by IC50. Ranges: lower range: < 0.2 nM; middle range: ≥ 0.2 nM and < 0.4 nM; upper range: ≥ 0.4 nM

[
  {
    "binder": "PAPLEPTYPGDNATPEQMAKYAAELRRYINMLTRPRY [7251]",
    "qualitative label": "lower range"
  },
  {
    "binder": "KPLEPVYPGDDATPQQMAQYAAELRRYINMLTRPRY [4055197]",
    "qualitative label": "upper range"
  },
  {
    "binder": "APLEPVYPGDNATPEQMAQYAADLNLRYINMLTRPRY [4054990]",
    "qualitative label": "upper range"
  },
  {
    "binder": "APLEPVYPGDNATPEQMNRYYASLRHYLNLVTRPRY [4054985]",
    "qualitative label": "lower range"
  },
  {
    "binder": "APLEPVYPGDNATPEQMAQYYASLQHYLNLVTRPRY [4055246]",
    "qualitative label": "upper range"
  },
  {
    "binder": "KPLEPVYPGDDATPQQMAQYAAELRRYINMLTRPRY [4055196]",
    "qualitative label": "middle range"
  },
  {
    "binder": "APLEPVYPGDNATPEQMAQYAADLRRYINMLTRPMY [4054976]",
    "qualitative label": "upper range"
  },
  {
    "binder": "PAPLEPTYPGDDATPQQMAKYAAELRRYINILTRPRY [7270]",
    "qualitative label": "lower range"
  },
  {
    "binder": "PAPLEPTYPGDNATPEQMAKYAAELRRYINKLTRPRY [7252]",
    "qualitative label": "lower range"
  },
  {
    "binder": "APLEPVYPGDDATPEQMAEYAADLRRYINMLTRPRY [4055406]",
    "qualitative label": "lower range"
  },
  {
    "binder": "APLEPVYPGDNATPEQNLAQYAADLRRYINMLTRPRY [4055398]",
    "qualitative label": "lower range"
  },
  {
    "binder": "APLEPVYPGDNATPEQMAQYAADLRRYIDMLTRPRY [4055403]",
    "qualitative label": "upper range"
  },
  {
    "binder": "PAPLEPTYPGDNATPEQMARYAAALRRYINMLTRPRY [7249]",
    "qualitative label": "lower range"
  },
  {
    "binder": "PAPLEPTYPGDDATPQQMARYAAELRRYINKLTRPRY [7258]",
    "qualitative label": "lower range"
  },
  {
    "binder": "APLEPVYPGDDATPQQMAQYYAELRHYLNLVTRPRY [4055248]",
    "qualitative label": "middle range"
  },
  {
    "binder": "PAPLEPTYPGDNATPEQMAKYAAALRRYINMLTRPRY [7250]",
    "qualitative label": "lower range"
  },
  {
    "binder": "APLEPVYPGDNATPEQMAQYAADLMRYINMLTRPRY [4054981]",
    "qualitative label": "middle range"
  },
  {
    "binder": "APLEPVYPGDDATPQQMAQYYASLRHYLNLVTRPRY [4055247]",
    "qualitative label": "middle range"
  }
]
